Every entry's value here was drawn from patent US20230235012A1.

- Study target: T1, human ICOS, full-length, expressed on transfected Expi293 cells (human, UniProt Q9Y6W8 21-199)
- T1 construct: whole, on cells
- T1 sequence (looked up): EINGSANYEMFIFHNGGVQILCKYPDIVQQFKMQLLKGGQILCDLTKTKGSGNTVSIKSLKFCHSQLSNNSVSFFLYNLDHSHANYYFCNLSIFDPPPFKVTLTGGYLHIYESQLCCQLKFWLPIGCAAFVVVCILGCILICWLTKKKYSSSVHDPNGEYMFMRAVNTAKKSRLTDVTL
- Assay notes: flow cytometry, 100 nM, Expi293 cells with human ICOS
Recorded endpoint: MFI ratio to WT (ΔWT) (fold)
Answer format: numeric, fold implied, no suffix.

variant ICOSL IgV-Fc fusion N52R/N57F/Q100T (Fc fusion) DTQEKEVRAMVGSDVELSCACPEGSRFDLNDVYVYWQTSESKTVVTYHIPQRSSLEFVDSRYRNRALMSPAGMLRGDFSLRLFNVTPQDEQKFHCLVLSTSLGFQEVLSVEVTLHVAANFSVGSGGGGSEPKSSDKTHTCPPCPAPEAEGAPSVFLFPPKPKDTLMISRTPEVTCVVVDVSHEDPEVKFNWYVDGVEVHNAKTKPREEQYNSTYRVVSVLTVLHQDWLNGKEYKCKVSNKALPAPIEKTISKAKGQPREPQVYTLPPSREEMTKNQVSLTCLVKGFYPSDIAVEWESNGQPENNYKTTPPVLDSDGSFFLYSKLTVDKSRWQQGNVFSCSVMHEALHNHYTQKSLSLSPG ... 1.27

Next item in the queue.
[Q] Fill blank: measured MFI ratio to WT (ΔWT) of the binder variant ICOSL IgV-Fc fusion N52G/N57V/Q100G (Fc fusion) DTQEKEVRAMVGSDVELSCACPEGSRFDLNDVYVYWQTSESKTVVTYHIPQGSSLEVVDSRYRNRALMSPAGMLRGDFSLRLFNVTPQDEQKFHCLVLSGSLGFQEVLSVEVTLHVAANFSVGSGGGGSEPKSSDKTHTCPPCPAPEAEGAPSVFLFPPKPKDTLMISRTPEVTCVVVDVSHEDPEVKFNWYVDGVEVHNAKTKPREEQYNSTYRVVSVLTVLHQDWLNGKEYKCKVSNKALPAPIEKTISKAKGQPREPQVYTLPPSREEMTKNQVSLTCLVKGFYPSDIAVEWESNGQPENNYKTTPPVLDSDGSFFLYSKLTVDKSRWQQGNVFSCSVMHEALHNHYTQKSLSLSPG is ____.
[A] 1.23
